Target: Aminopeptidase N (Plasmodium falciparum (isolate 3D7)) (UniProt O96935)
Sequence (O96935 whole entry, looked up): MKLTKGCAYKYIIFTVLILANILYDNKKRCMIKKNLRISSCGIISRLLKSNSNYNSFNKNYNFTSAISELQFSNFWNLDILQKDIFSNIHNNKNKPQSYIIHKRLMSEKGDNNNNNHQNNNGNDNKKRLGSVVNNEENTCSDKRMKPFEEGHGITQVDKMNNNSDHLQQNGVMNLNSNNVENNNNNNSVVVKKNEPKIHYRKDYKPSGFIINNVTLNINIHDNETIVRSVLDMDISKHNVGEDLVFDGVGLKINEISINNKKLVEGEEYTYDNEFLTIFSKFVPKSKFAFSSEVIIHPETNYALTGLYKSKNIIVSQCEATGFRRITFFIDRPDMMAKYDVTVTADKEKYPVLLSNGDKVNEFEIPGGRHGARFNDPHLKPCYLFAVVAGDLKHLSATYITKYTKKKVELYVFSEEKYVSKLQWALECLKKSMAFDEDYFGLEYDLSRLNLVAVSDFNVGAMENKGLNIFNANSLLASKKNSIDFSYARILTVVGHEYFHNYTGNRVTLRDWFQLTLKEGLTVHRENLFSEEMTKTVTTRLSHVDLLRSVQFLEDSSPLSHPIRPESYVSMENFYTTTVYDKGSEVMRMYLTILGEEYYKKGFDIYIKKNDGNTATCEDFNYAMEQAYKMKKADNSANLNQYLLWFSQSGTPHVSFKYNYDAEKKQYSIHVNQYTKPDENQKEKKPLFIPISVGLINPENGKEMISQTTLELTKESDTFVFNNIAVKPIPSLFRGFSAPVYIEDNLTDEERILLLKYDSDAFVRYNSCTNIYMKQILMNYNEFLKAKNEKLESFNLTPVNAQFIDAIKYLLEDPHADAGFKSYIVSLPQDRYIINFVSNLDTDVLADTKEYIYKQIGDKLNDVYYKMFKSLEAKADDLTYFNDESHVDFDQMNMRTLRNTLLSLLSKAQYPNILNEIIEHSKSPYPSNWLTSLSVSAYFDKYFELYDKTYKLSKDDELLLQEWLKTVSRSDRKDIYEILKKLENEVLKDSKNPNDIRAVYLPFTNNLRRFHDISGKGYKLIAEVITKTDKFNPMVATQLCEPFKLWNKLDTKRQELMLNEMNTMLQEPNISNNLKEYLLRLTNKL
Assay: malaria alanyl aminopeptidase activity blockers – biochemical, fluorogenic H-Leu-NHMec substrate, 1536-well (AID 1445);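 also: plate controls were DMSO full reaction for no effect and no enzyme background for full effect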
Settings: recombinant M1AAP, H-Leu-NHMec fluorogenic kinetic assay; at 30 µM, active compounds read high unless noted
The campaign covered roughly 220,000 compounds. About 910 (0.41%) were called active. This is one part of a sample in which actives are shown more often than they occur. Potency and affinity values are given separately.
Measured inhibition values are reported for all entries that follow.
Answer with a number only, understood to be in %.

                                   compound  number
0        CC(C)NC(=O)CSc1nnc(COc2ccccc2Cl)o1    8.56
1  Cc1noc(NS(=O)(=O)c2ccc(NC(=O)CSc3n[nH]c(-c4ccccc4)n3)cc2)c1C    19.9
2  CC(=O)N(c1ccc2oc(=O)sc2c1)S(=O)(=O)c1cccs1    21.6
3  O=C(O)CC1S/C(=N\N=C2CCCCCCC2)N(c2ccccc2)C1=O (centres undefined)    7.68
4  COC(=O)CSC1=C(C#N)C(c2ccc(C(C)C)cc2)CC(=O)N1 (centres undefined)    23.7

*Q* I am curious: what inhibition value has been reported for "COc1ccc(-n2c(SCC(=O)Nc3cc(C)on3)nc3c([nH]c4ccccc43)c2=O)cc1" ?
*A* 0.91

*Q* Likewise for "Brc1ccccc1-c1csnn1" ?
*A* 2.07

*Q* Likewise for "COCCNc1cc(C)c(C#N)c2nc3ccccc3n12" ?
*A* -4.32

*Q* Likewise for O=C(NC1CCCCC1)NC1CC2CCC(C1)N2C(=S)NCc1ccco1 (centres undefined) ?
*A* 19.9

* * *

Molecular target: Aminopeptidase N (Plasmodium falciparum (isolate 3D7)) (UniProt O96935)
Experiment: malaria alanyl aminopeptidase activity blockers – biochemical, fluorogenic H-Leu-NHMec substrate, 1536-well (AID 1445)
Details: recombinant M1AAP, H-Leu-NHMec fluorogenic kinetic assay; at 30 µM, active compounds read high unless noted
Among all 220,000 compounds or so, about 910 (0.41%) were called active. The list comes from a sample in which actives are over-represented; it also holds close analogues and randomly drawn compounds. Entries with a potency or affinity are not part of this list.
Measured inhibition values are reported for all entries that follow.
Answer with a number only, understood to be in %.

                                   compound  number
0  O=C(O)CC/C(=C\c1ccc(Cl)c([N+](=O)[O-])c1)c1nc2ccccc2s1    15.7
1  Cc1ccc(N2CC(C(=O)Nc3cccnc3)CC2=O)cc1 (stereo not given)   -4.99
2  CCCCn1c(NC(=O)c2ccc(Br)o2)c(S(=O)(=O)c2ccccc2)c2nc3ccccc3nc21    8.47
3  CC(Cc1cccs1)NC(=S)Nc1ccc(Cl)c(Cl)c1 (stereo not given)   -3.88
4  CC(C)(C)C(=O)Nc1ccc(S(=O)(=O)Nc2ccccn2)cc1    4.68
5  O=C(O)CCN1C(=O)/C(=C/c2ccc(-c3nc4ccccc4s3)o2)SC1=S   -3.38
6  C#CCOCCOCCOCCNc1nc(N2CCOCC2)nc(N2CCN(C(=O)[C@H]([C@@H](C)CC)n3cc(CCCCN)nn3)CC2)n1    0.08
7  COCCN(C(=O)CN1CCN(S(=O)(=O)c2ccc(F)cc2)CC1)c1c(N)n(Cc2ccccc2)c(=O)[nH]c1=O    7.35

*Q* I am curious: what inhibition value has been reported for Cc1cccc(N2C(=O)CC(N3CCC(c4nc5ccccc5[nH]4)CC3)C2=O)c1 (stereo not given) ?
*A* 3.73

*Q* Likewise for COc1ccc([N+](=O)[O-])cc1N(CC(O)CN1CCCCC1)S(=O)(=O)c1ccc(C)cc1 (stereo not given) ?
*A* 8.41

*Q* Likewise for "Cc1ccc(/C=C(\CCC(=O)O)c2nc3ccccc3s2)cc1[N+](=O)[O-]" ?
*A* 15.5

*Q* Likewise for "Cc1cccc2cc(CN(C(=O)c3cnccn3)C3CCCCC3)c(Cl)nc12" ?
*A* 5.74

*Q* Likewise for "CC(=O)Nc1cccc(NS(=O)(=O)c2ccccc2[N+](=O)[O-])c1" ?
*A* -4.08

*Q* Likewise for "N#Cc1c(N)sc2c1CCCCCC2" ?
*A* 7.78

*Q* Likewise for COc1ccc([N+](=O)[O-])cc1N(CC(O)CN1CCCC1)S(=O)(=O)c1ccc(C)cc1 (stereo not given) ?
*A* 2.31

*Q* Likewise for CCN(CC)CC(C)CNC(=O)CN1C(=O)CSc2ccc(S(=O)(=O)N3CCOCC3)cc21 (stereo not given) ?
*A* 8.54

*Q* Likewise for "COc1cccc(/C=C(\CC(=O)O)c2nc3ccccc3s2)c1" ?
*A* 11.8

*Q* Likewise for "O=C(O)CC/C(=C\c1cccc(NC(=O)c2ccccc2Cl)c1)c1nc2ccccc2s1" ?
*A* 18

*Q* Likewise for "O=C(CSc1nnc(CCc2nc3ccccc3[nH]2)n1-c1ccccc1)NCc1ccccc1" ?
*A* -1.21

*Q* Likewise for "CCCOC(=O)c1ccc(Oc2c(-c3ccc(OCC)cc3O)n[nH]c2C)cc1" ?
*A* -5.24

* * *

Target: Aminopeptidase N (Plasmodium falciparum (isolate 3D7))
Test: malaria alanyl aminopeptidase activity blockers – biochemical, fluorogenic H-Leu-NHMec substrate, 1536-well (AID 1445)
Conditions: recombinant M1AAP, H-Leu-NHMec fluorogenic kinetic assay; at 30 µM, active compounds read high unless noted
Screen size: about 220,000 compounds; about 910 (0.41%) were called active. What follows is part of a selection rich in actives, with near analogues and random picks from the rest. Results with a measured potency or affinity are listed apart.
Property measured: inhibition (%)
Answer with a number only, understood to be in %.

Sample records with inhibition:
>>> print(df.to_string())
                                   compound  number
0             CCCCCCC(=O)N/N=C(\C)Cc1ccccc1   -0.14
1  O=C(O)c1cc(-c2ccc(/C=N/Nc3ccc(Cl)cc3)o2)ccc1Cl    16.9

Continue with the next compound.
*Q* I am curious: what inhibition value has been reported for "Nc1nonc1C(=O)N/N=C/c1ccc(-c2cccc([N+](=O)[O-])c2)o1" ?
*A* 7.55

* * *

Measured inhibition values are reported for all entries that follow.
Biological target: Aminopeptidase N (Plasmodium falciparum (isolate 3D7))
Experiment: malaria alanyl aminopeptidase activity blockers – biochemical, fluorogenic H-Leu-NHMec substrate, 1536-well (AID 1445);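 also: plate controls were DMSO full reaction for no effect and no enzyme background for full effect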
Conditions: recombinant M1AAP, H-Leu-NHMec fluorogenic kinetic assay; at 30 µM, active compounds read high unless noted
Out of some 220,000 compounds screened, about 910 (0.41%) were called active. Many of the other results were omitted from the sample, so actives are more common in it than they were. Entries with a potency or affinity are not part of this list.
Answer with a number only, understood to be in %.

Sample records with inhibition:
>>> print(df.to_string())
                                   compound  number
0     CCOc1ccccc1NC(=O)CCNC(=O)c1ccc(Cl)cc1   -0.92
1  C=CCNC(NC(=O)c1ccccc1)(C(=O)OCC)C(F)(F)F (stereo unspecified)   -7.27

Continue with the next compound.
*Q* I am curious: what inhibition value has been reported for "COc1cc([N+](=O)[O-])ccc1-c1ccc(/C=N/NC(=O)OC(C)(C)C)o1" ?
*A* 3.22

* * *

Target: Aminopeptidase N (Plasmodium falciparum (isolate 3D7))
Experiment: malaria alanyl aminopeptidase activity blockers – biochemical, fluorogenic H-Leu-NHMec substrate, 1536-well (AID 1445);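 also: plate controls were DMSO full reaction for no effect and no enzyme background for full effect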
Settings: recombinant M1AAP, H-Leu-NHMec fluorogenic kinetic assay; at 30 µM, active compounds read high unless noted
Among all 220,000 compounds or so, about 910 (0.41%) were called active. The sample holds actives, similar compounds and a random draw of the others, so the mix is not that of the screen. Potency and affinity values are given separately.
Measured inhibition values are reported for all entries that follow.
Answer with a number only, understood to be in %.

Sample records with inhibition:
>>> df
                                   compound  number
0  Cc1ccc2nc(N3C(=O)C(O)=C(C(=O)c4ccco4)C3c3cccs3)sc2c1 (stereo not given)    27.4
1  Cn1nc(C(F)(F)F)c2cc(C(=O)Nc3ccc(F)c(Cl)c3)sc21    8.67
2  Cc1ccc2nc(N3C(=O)C(O)=C(C(=O)c4cc5ccccc5o4)C3c3cccs3)sc2c1 (stereo not given)    10.6
3         C=CCOC(=O)C(=O)/C=C/c1csc2ccccc12    1.93

Continue with the next compound.
*Q* I am curious: what inhibition value has been reported for "Cc1cc(C)n2nc(N)c(N=Nc3ccc4c(c3)OCO4)c2n1" ?
*A* -0.91

* * *

Target: Aminopeptidase N (Plasmodium falciparum (isolate 3D7))
Assay: malaria alanyl aminopeptidase activity blockers – biochemical, fluorogenic H-Leu-NHMec substrate, 1536-well (AID 1445);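 also: plate controls were DMSO full reaction for no effect and no enzyme background for full effect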
Settings: recombinant M1AAP, H-Leu-NHMec fluorogenic kinetic assay; at 30 µM, active compounds read high unless noted
The campaign covered roughly 220,000 compounds. About 910 (0.41%) were called active. The sample holds actives, similar compounds and a random draw of the others, so the mix is not that of the screen. Potency and affinity values are given separately.
Measured inhibition values are reported for all entries that follow.
Answer with a number only, understood to be in %.

Sample records with inhibition:
>>> print(df.to_string())
                                   molecule                             tested_target  property_measured  number
0        COC(=O)N/N=C(\C)c1ccc(-n2ccnc2)cc1  Aminopeptidase N (Plasmodium falciparum (isolate 3D7))         inhibition    -0.5
1  O=C(NC(=S)NC1C2CC3CC(C2)CC1C3)C12CC3CC(CC(C3)C1)C2 (stereo unspecified)  Aminopeptidase N (Plasmodium falciparum (isolate 3D7))         inhibition    5.47
2  CN(Cc1c(F)cccc1Cl)c1ccc(S(=O)(=O)N2CCOCC2)cn1  Aminopeptidase N (Plasmodium falciparum (isolate 3D7))         inhibition   -2.07
3  CC(C)[C@H](NC(=O)c1ccc(Cl)c([N+](=O)[O-])c1)C(=O)NCc1ccc(F)cc1  Aminopeptidase N (Plasmodium falciparum (isolate 3D7))         inhibition    3.78
4              CCCCN1CNC(=S)N(CCc2ccccc2)C1  Aminopeptidase N (Plasmodium falciparum (isolate 3D7))         inhibition    2.11

*Q* Give the reported inhibition for COc1cc(/C=C2\SC(=S)N(C(C(=O)O)c3ccccc3)C2=O)cc(OC)c1OC (stereo unspecified) (system: Aminopeptidase N (Plasmodium falciparum (isolate 3D7))).
*A* 18.4

*Q* Likewise for "N#Cc1cc2c(nc1SCc1ccccc1)CCCC2" ?
*A* 5.77

Cited source for all entries: PubChem BioAssay AID1445
